Recorded MIC by entry
# Tested on: Staphylococcus aureus
# assay_procedure: Antimicrobial activity against macrolide-resistant Staphylococcus aureus RN4220 assessed as absence of growth after 18 hrs by MTT assay
# condition_info: RN4220, 18 h
endpoint: MIC (µg/mL)

compound	recorded_measurement
CC(C)=CCC/C(C)=C/CNC(=S)NC/C=C(\C)CCC=C(C)C	128
CC(C)=C/C=C/C1(C)CCN=C(N)N1 (stereo not given)	16
CC(C)=CCC/C(C)=C/CN(C)C(=N)N(C)C/C=C(\C)CCC=C(C)C	16
CCn1cc(C(=O)O)c(=O)c2cc(F)c(N3CCNCC3)cc21	0.5
CC(C)=CCC/C(C)=C/C=N/C(N)N	16
CC(C)=CCNC(=N)NCC=C(C)C	4
CC(C)=CCC/C(C)=C/CNC(=N)NC/C=C(\C)CCC=C(C)C	16
CC(C)=CCN=C(N)N	4
